system: IRAP (Homo sapiens)
Construct: expressed in transfected cells; host or cells: HEK 293T cells (solubilised membrane protein)
Sequence (Q9UIQ6 whole entry): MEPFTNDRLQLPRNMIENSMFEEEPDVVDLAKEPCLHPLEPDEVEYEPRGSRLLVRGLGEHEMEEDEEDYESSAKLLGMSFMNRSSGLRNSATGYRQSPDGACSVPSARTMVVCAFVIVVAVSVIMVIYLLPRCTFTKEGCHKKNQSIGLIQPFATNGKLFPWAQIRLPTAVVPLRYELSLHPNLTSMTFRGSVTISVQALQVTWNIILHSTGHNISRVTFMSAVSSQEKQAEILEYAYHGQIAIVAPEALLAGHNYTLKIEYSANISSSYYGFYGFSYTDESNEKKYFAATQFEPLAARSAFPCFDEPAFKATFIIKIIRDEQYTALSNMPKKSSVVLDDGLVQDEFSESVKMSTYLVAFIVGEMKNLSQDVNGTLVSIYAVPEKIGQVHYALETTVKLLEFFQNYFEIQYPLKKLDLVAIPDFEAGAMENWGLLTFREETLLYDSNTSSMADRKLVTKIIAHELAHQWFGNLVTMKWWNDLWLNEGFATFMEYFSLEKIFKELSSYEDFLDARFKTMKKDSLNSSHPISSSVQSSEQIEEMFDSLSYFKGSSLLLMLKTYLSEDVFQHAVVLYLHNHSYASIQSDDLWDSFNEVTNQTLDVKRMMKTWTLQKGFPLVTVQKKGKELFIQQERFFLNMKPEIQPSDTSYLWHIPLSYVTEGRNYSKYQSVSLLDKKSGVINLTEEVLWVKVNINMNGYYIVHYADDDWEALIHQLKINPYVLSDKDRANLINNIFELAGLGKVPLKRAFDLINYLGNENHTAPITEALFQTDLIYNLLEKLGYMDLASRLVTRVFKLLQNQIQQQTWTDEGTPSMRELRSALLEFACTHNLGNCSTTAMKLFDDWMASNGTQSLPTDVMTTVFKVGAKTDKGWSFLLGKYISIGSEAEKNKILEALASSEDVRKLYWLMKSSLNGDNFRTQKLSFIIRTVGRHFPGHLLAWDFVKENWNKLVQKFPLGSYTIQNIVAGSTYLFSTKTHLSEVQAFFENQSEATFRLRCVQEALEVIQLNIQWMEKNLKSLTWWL
experiment.description: Degradation of peptides by IRAP expressed in HEK 293T cells, HPLC with mass spectrometric detection
Type: biochemical
conditions.used: incubation at 37° C. with solubilized membrane protein from hIRAP transfected HEK 293T cells
measurement.label: Products Identified

1. Ang I: angiotensin peptide (DRVYIHPFHL); None
2. angiotensin II (DRVYIHPF) [Ang II]; None
3. α-Endorphin (YGGFMTSEKSQTPLVT) [16 residues, first five identical to met-enkephalin]; None

----------
system: AT4 receptor (Bos taurus)
Construct: from tissue; host or cells: bovine adrenal gland membranes
Sequence (F1N1Q8 1-1022): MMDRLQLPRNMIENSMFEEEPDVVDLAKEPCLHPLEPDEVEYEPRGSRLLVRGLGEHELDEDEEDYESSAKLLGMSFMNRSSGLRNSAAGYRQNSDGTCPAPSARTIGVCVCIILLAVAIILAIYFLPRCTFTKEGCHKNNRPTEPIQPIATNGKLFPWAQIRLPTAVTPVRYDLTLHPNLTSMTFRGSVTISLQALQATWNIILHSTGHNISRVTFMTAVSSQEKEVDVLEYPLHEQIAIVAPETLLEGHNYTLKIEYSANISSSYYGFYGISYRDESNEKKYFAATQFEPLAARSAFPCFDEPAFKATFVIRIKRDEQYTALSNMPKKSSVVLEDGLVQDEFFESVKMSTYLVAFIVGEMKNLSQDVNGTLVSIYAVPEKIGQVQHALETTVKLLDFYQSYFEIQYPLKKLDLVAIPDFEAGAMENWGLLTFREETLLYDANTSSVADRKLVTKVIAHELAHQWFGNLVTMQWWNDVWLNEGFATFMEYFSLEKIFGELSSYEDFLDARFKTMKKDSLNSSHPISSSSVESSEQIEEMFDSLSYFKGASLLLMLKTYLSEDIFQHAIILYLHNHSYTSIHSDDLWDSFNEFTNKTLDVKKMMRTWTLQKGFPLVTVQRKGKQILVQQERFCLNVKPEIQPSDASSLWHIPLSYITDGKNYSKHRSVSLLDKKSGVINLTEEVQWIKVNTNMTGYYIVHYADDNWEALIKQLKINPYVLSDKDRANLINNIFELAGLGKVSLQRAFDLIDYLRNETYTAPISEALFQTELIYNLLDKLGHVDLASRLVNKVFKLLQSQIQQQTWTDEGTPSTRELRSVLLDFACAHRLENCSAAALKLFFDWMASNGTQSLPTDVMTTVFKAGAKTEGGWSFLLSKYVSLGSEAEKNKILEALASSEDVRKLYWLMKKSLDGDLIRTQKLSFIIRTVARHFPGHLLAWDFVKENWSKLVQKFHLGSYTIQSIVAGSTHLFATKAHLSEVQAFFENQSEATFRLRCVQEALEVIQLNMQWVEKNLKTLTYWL
experiment.description: AT4 radioreceptor assay, ^125I-Ang IV binding to bovine adrenal membranes
Protocol: The AT4 radioreceptor assay was used to screen the sheep brain extracts for AT4 receptor modulatory activity. The membranes were prepared using bovine adrenal glands obtained from the abattoir. The adrenals were diced, homogenized in ice-cold hypotonic buffer (50 mM Tris, 5 mM EDTA, pH 7.4) and centrifuged for 10 min at 500 g. […] The resulting pellets were re-homogenized in hypotonic buffer. […]
pKi: −log10 of the molar value. Where no end group is shown, it is not given here.
measurement.label: pKi

Value of pKi reported for the sequence "LVVYPWTQRF" is 8.30 to 9.00
